- Test system: 876862-298-R-J1-PDC complex spheroids, viability % test/control;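 also: spheroids exposed to drugs for 7 days before readout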
- experimental protocol: Anticancer human tumor 876862-298-R-J1-PDC patient-derived endometrial carcinoma cell line growth inhibition [CLK]
- test settings: second compound 1 µM; first compound 0.0316 µM; active compounds read low
# note: boundary value 20% maps to F; viability, T/C below it maps to T

The following molecules have reported results that may help.
molecule | assigned class
O=c1[nH]cc(F)c(=O)[nH]1 + CN1CCN(c2cc(C(=O)Nc3cc4cc(-c5cnn(C)c5)ccc4cn3)ccn2)CC1 | T
COC1C=CCC(C)C(C)S(=O)(=O)NC(=O)c2ccc3c(c2)N(CC2CCC21)CC1(CCCc2cc(Cl)ccc21)CO3 (stereo not given) + CNC(=O)c1ccc(Nc2nc(OC3CCCC3)c3c(-c4ccc5nc(C)oc5c4)c[nH]c3n2)c(OC)c1 | F
CCc1c2c(nc3ccc(O)cc13)-c1cc3c(c(=O)n1C2)COC(=O)[C@]3(O)CC + CN1CCN(c2cc(C(=O)Nc3cc4cc(-c5cnn(C)c5)ccc4cn3)ccn2)CC1 | T
CC1COCCN1c1cc(C2(S(C)(=N)=O)CC2)nc(-c2ccnc3[nH]ccc23)n1 (stereo not given) + CN1CCN(c2cc(C(=O)Nc3cc4cc(-c5cnn(C)c5)ccc4cn3)ccn2)CC1 | T
CC(CO)NC(=O)c1cc(-c2ccc(Cl)cc2)nn(-c2cnn(C)c2)c1=O (stereo not given) + CN1CCN(c2cc(C(=O)Nc3cc4cc(-c5cnn(C)c5)ccc4cn3)ccn2)CC1 | T

Prompt line: State whether 20% exceeds viability, T/C recorded for Nc1ccn(C2OC(CO)C(O)C2(F)F)c(=O)n1 (stereo not given) + CN1CCN(c2cc(C(=O)Nc3cc4cc(-c5cnn(C)c5)ccc4cn3)ccn2)CC1 .
Response line: T

Prompt line: Also CC(=O)O[C@H]1C(=O)[C@@]2(C)[C@H]([C@H](OC(=O)c3ccccc3)[C@]3(O)C[C@H](OC(=O)[C@H](O)[C@@H](NC(=O)c4ccccc4)c4ccccc4)C(C)=C1C3(C)C)[C@]1(OC(C)=O)CO[C@@H]1C[C@@H]2O + CNC(=O)c1ccc(Nc2nc(OC3CCCC3)c3c(-c4ccc5nc(C)oc5c4)c[nH]c3n2)c(OC)c1 ?
Response line: F

Prompt line: Also CCN1CCN(Cc2ccc(Nc3ncc(F)c(-c4cc(F)c5nc(C)n(C(C)C)c5c4)n3)nc2)CC1 + CN1CCN(c2cc(C(=O)Nc3cc4cc(-c5cnn(C)c5)ccc4cn3)ccn2)CC1 ?
Response line: T

Prompt line: Also COc1c(OCCCN2CCOCC2)ccc2c3n(c(=NC(=O)c4cnc(N)nc4)nc12)CCN3 + CNC(=O)c1ccc(Nc2nc(OC3CCCC3)c3c(-c4ccc5nc(C)oc5c4)c[nH]c3n2)c(OC)c1 ?
Response line: T

Prompt line: Also C#Cc1c(F)ccc2cc(O)cc(-c3ncc4c(N5CC6CCC(C5)N6)nc(OCC56CCCN5CC(F)C6)nc4c3F)c12 (stereo not given) + CNC(=O)c1ccc(Nc2nc(OC3CCCC3)c3c(-c4ccc5nc(C)oc5c4)c[nH]c3n2)c(OC)c1 ?
Response line: F
